SYSTEM UNDER TEST: GST-SP1 (UniProt P08047)
Sequence (P08047 whole entry): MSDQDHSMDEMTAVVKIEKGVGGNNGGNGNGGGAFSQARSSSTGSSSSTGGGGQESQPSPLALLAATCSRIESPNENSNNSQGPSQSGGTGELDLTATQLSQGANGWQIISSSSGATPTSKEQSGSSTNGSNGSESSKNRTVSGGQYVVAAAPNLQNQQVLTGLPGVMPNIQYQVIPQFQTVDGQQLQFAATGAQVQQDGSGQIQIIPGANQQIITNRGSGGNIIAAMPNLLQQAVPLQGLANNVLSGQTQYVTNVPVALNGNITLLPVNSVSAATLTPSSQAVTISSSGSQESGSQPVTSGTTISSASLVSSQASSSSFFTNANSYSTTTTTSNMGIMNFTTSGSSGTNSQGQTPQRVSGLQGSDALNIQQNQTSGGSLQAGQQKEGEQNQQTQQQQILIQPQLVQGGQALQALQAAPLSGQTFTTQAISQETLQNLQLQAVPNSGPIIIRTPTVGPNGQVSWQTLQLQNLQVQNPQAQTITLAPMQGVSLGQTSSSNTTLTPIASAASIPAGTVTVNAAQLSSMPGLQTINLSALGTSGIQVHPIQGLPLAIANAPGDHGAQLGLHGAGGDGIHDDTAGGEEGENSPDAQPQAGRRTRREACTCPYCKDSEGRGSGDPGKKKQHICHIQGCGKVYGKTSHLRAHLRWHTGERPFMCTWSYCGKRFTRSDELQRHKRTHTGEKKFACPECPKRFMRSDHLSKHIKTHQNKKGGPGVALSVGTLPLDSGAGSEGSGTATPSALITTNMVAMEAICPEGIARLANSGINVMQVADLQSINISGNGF
TEST: SPR
CONDITIONS: 5-methylcytosine at CpG (underlining lost in text; CpG C at 5, 10, 16); SPR VEGF165: DNA folded in 10 mM Tris-HCl, 100 mM KCl, pH 7.4, 25 °C; ELONA: DNA folded in TK (100 mM KCl) or 100 mM LiCl buffer, binding in TBS (10 mM …)
MEASURE NAME: Kd (nM)
The reply should contain only the number, in nM.

What is its Kd for GST-SP1 (UniProt P08047)? Entry: GGGGCGGGCCGGGGGCGGGG [VEGF G4 methylated] 11
